Biological target: T1, recombinant cynomolgus monkey PD-1 expressed with a C-terminal myc-myc-hexahistidine tag (cynomolgus monkey (Macaca fascicularis))
T1 construct: monomeric; also called MfPD-1-MMH
T1 chain: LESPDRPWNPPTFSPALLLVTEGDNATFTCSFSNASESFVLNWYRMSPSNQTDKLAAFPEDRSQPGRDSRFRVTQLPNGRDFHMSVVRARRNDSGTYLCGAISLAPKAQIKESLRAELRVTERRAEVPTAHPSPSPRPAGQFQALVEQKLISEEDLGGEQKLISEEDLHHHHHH
Experiment: SPR, mAb captured, 25C;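 further: rates from fitting Biacore data for PD-1 binding to anti-PD-1 antibodies with a 1:1 model, KD computed as koff/kon and t½ as ln2/(60·koff)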
t½ values for the binders below.
quantityName: t½ (min)

{"columns": ["binder", "observed"],
 "data": [
  ["H4H7798N (antibody, human IgG4 S228P, kappa, V domains shown) VH: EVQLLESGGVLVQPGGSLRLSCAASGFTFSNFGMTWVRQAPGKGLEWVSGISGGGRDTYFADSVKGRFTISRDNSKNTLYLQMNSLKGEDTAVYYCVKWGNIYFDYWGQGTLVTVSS VL: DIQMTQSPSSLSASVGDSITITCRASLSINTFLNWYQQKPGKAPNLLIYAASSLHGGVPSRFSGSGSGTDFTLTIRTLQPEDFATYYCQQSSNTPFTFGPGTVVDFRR", 21],
  ["H1M7799N (antibody, mouse IgG1, V domains shown, Human variable regions, mouse IgG1 Fc) VH: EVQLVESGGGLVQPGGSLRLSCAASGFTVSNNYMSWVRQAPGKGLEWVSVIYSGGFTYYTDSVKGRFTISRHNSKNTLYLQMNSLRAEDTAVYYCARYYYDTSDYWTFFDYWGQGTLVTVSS VL: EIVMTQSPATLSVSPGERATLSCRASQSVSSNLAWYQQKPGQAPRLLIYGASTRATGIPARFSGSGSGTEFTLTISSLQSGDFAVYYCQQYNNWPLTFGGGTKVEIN", 0.9],
  ["H2aM7780N (antibody, mouse IgG2a, V domains shown, Human variable regions, mouse IgG2a Fc (H2aM prefix); also called H2M7780N) VH: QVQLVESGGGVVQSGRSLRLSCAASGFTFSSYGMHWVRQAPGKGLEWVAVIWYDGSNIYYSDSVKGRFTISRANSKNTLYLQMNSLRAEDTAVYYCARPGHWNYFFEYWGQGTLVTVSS VL: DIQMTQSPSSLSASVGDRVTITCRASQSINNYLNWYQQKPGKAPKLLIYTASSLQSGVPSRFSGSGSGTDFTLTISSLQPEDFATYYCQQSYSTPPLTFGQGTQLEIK", 37]
]}
